Biological target: Estrogen receptor (Mus musculus) (UniProt O08537+P19785)
Sequence (O08537 whole entry, looked up): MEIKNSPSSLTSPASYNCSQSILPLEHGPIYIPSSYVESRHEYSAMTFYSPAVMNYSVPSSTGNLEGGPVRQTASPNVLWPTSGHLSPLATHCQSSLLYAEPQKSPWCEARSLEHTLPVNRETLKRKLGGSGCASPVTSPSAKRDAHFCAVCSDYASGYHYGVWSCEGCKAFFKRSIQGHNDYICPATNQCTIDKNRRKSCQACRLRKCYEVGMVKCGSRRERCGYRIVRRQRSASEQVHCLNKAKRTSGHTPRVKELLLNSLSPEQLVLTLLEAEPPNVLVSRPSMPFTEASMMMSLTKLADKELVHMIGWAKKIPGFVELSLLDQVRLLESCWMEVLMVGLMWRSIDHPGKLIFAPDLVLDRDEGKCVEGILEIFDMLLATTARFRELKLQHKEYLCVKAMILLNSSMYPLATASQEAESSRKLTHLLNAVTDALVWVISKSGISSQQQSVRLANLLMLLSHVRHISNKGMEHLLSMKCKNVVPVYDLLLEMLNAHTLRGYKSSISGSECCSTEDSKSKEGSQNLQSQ
Sequence (P19785 whole entry, looked up): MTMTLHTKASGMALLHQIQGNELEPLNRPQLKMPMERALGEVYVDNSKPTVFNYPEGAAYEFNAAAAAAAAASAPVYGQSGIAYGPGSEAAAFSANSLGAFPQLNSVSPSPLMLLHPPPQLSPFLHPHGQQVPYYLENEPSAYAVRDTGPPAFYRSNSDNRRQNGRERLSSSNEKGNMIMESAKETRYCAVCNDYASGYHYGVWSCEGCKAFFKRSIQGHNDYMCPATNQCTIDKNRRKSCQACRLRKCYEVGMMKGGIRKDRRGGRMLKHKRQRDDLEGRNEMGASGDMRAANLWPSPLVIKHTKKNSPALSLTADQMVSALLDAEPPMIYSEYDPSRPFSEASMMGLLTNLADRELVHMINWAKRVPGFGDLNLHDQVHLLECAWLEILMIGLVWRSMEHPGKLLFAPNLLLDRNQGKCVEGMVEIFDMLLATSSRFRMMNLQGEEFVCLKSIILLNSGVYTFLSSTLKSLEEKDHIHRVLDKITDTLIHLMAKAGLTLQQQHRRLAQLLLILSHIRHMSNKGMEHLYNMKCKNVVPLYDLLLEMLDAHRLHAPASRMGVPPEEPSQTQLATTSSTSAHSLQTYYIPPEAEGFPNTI
Experiment: […] estrogenic effect in immature mice at 500 ug
Assay type: functional
# strict inequality: estrogenic effect < 60% yields label 1, everything else yields label 0

Answered examples (5):
Report whether reported estrogenic effect is lower than 60% (strictly) for `CCC(=C(c1ccc(OC(C)=O)c(OC(C)=O)c1)c1ccc(OC(C)=O)c(OC(C)=O)c1)c1ccccc1`
label 1

Determine whether this molecule shows estrogenic effect lower than 60% (ties excluded): `CC/C(=C(\c1ccccc1)c1ccc(OC(C)=O)c(OC(C)=O)c1)c1ccc(OC(C)=O)c(OC(C)=O)c1`
label 0

Field: below-cutoff. Rule: recorded estrogenic effect strictly less than 60%. Subject: `CC/C(=C(/c1ccccc1)c1ccc(OC(C)=O)c(OC(C)=O)c1)c1ccc(OC(C)=O)c(OC(C)=O)c1`
label 0

# strict comparison: is reported estrogenic effect < 60%? input = `CC/C(=C(\c1ccccc1)c1cccc(OC(C)=O)c1)c1ccc(OC(C)=O)c(OC(C)=O)c1`
label 0

Lab log: compare recorded estrogenic effect with 60%; is it strictly lower for `CC/C(=C(\c1ccccc1)c1ccc(OC(C)=O)c(OC(C)=O)c1)c1ccccc1` ?
label 0

Please look at the following molecule next.
Does this molecule meet the criterion estrogenic effect < 60%? `CC/C(=C(/c1ccccc1)c1ccc(OC(C)=O)c(OC(C)=O)c1)c1ccccc1`
label 0

---

Tested on: Mus musculus
Experiment: In vivo inhibition of hormone-dependent MXT mammary tumor in mice
Type: functional
Overview of reported T/C across a group of compounds:
Supply the numeric figure in %, leaving out any unit text.

Any idea what its T/C is? The compound is `CC/C(=C(\c1ccccc1)c1ccc(OC(C)=O)c(OC(C)=O)c1)c1cccc(OC(C)=O)c1`
115

Next:
Field request: T/C | item: `CC/C(=C(/c1ccccc1)c1ccc(OC(C)=O)c(OC(C)=O)c1)c1cccc(OC(C)=O)c1`
103

Give the measured T/C of `CCC(=C(c1ccccc1)c1ccccc1)c1ccc(OC(C)=O)c(OC(C)=O)c1` .
115

Given the compound `CC/C(=C(/c1ccccc1)c1cccc(OC(C)=O)c1)c1ccc(OC(C)=O)c(OC(C)=O)c1` , what is its reported T/C?
123

---

# Lookup of reported T/C keyed by entry
System: Mus musculus
Test: In vivo inhibition of hormone-dependent MXT mammary tumor in mice
Type: functional
The reply should be a number in %, with the unit left off.

// solved cases for T/C follow
Give the measured T/C of `CC/C(=C(/c1ccc(OC(C)=O)cc1)c1ccc(OC(C)=O)c(OC(C)=O)c1)c1ccccc1` .
99

T/C for `CC/C(=C(\c1ccccc1)c1ccc(OC(C)=O)c(OC(C)=O)c1)c1ccccc1` ?
107

Can you look up the measured T/C of `CC/C(=C(\c1ccccc1)c1ccc(OC(C)=O)cc1)c1ccc(OC(C)=O)c(OC(C)=O)c1` for me?
195

Which value of T/C has been reported for `CC/C(=C(\c1ccc(OC(C)=O)cc1)c1ccc(OC(C)=O)c(OC(C)=O)c1)c1ccccc1` in the records?
125

Data request, read-out T/C, for `CC/C(=C(\c1ccccc1)c1ccc(OC(C)=O)c(OC(C)=O)c1)c1ccc(OC(C)=O)c(OC(C)=O)c1`
90

So what does the record say about T/C for `CC/C(=C(/c1ccccc1)c1ccc(OC(C)=O)cc1)c1ccc(OC(C)=O)c(OC(C)=O)c1` ?
183

New cases:
// T/C lookup, key: `CC/C(=C(/c1ccccc1)c1ccc(OC(C)=O)c(OC(C)=O)c1)c1ccc(OC(C)=O)cc1`
113
